Molecular target: ScMyo5
Experiment: SPOT peptide array binding signal intensity (averaged, normalized) (arbitrary units (background-subtracted, floor 0; scale differs between SH3 domains)); higher = stronger binding of the SH3 domain to the peptide
Quick reference for SPOT peptide array binding signal intensity among some binders
quantity.name: SPOT peptide array binding signal intensity

[
  {
    "binder": "RSRRSSFAYPQQVAI",
    "limit.qualifier": "=",
    "value.reported": 8.5
  },
  {
    "binder": "NQARKPFLLPATELS",
    "limit.qualifier": "≤",
    "value.reported": 0
  },
  {
    "binder": "LKVTPGRRAPTISKI",
    "limit.qualifier": "=",
    "value.reported": 20.2
  },
  {
    "binder": "VSKLRSPNTPRRLRK",
    "limit.qualifier": "=",
    "value.reported": 2.88
  },
  {
    "binder": "ANNQGPPNLPARDKS",
    "limit.qualifier": "≤",
    "value.reported": 0
  },
  {
    "binder": "KTITLEVESSDTIDN",
    "limit.qualifier": "≤",
    "value.reported": 0
  },
  {
    "binder": "ALKQKKIPPPFKPHL",
    "limit.qualifier": "=",
    "value.reported": 1
  }
]
